The following molecules are shown together with reported pIC50 values.
Molecular target: AKT1 E17K (Homo sapiens, UniProt P31749, E17K)
Construct: expressed in transfected cells; host or cells: HEK293
Sequence (P31749 whole entry E17K): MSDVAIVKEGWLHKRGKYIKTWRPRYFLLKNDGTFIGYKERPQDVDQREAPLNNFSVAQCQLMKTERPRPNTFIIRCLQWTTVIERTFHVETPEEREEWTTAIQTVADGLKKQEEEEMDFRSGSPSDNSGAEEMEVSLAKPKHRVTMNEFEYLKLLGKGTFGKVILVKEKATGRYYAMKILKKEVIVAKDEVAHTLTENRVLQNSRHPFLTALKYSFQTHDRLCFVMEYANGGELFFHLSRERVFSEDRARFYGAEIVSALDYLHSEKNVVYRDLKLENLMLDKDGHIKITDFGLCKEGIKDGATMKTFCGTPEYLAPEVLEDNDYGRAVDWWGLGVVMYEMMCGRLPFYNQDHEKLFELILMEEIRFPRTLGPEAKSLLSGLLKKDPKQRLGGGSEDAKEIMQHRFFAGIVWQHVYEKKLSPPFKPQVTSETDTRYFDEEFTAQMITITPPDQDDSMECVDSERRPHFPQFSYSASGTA
Experiment: Live cell AKT1 E17K target engagement by NanoBRET competitive probe displacement in HEK293 cells
Type: binding
Conditions: NanoBRET competitive probe displacement, live HEK293 cells, 2 h at 37° C.
API: returns pIC50 as number; meaning -log10 of concentration in mol/L.

Q) Report measured pIC50; entry is N#Cc1nccc(C(=O)N2CCC(N[C@H]3CCc4cc(-n5c(-c6cccnc6N)nc6ccc(-n7cccn7)nc65)ccc43)CC2)n1
A) 7.94

Q) Report measured pIC50; entry is N#Cc1nc(N2CCC(N[C@H]3CCc4cc(-n5c(-c6cccnc6N)nc6ccc(-n7cccn7)nc65)ccc43)CC2)cs1
A) 7.66

Q) Report measured pIC50; entry is Nc1ncccc1-c1nc2ccc(-n3cccn3)nc2n1-c1ccc2c(c1)CC[C@@H]2NC1CN(c2ccccn2)C1
A) 6.18

Q) Report measured pIC50; entry is COc1cc(C(=O)N[C@H]2CCc3cc(-n4c(-c5cccnc5N)nc5ccc(-n6nccn6)nc54)ccc32)cnn1
A) 7.23

Q) Report measured pIC50; entry is Cc1ccc(C(=O)N[C@H]2CCc3cc(-n4c(-c5ccccc5F)nc5ccc(-n6cccn6)nc54)ccc32)cn1
A) 6.97

Q) Report measured pIC50; entry is Nc1ncccc1-c1nc2ccc(-n3cccn3)nc2n1-c1ccc2c(c1)CC[C@@H]2NC(=O)c1cnns1
A) 6.75

Q) Report measured pIC50; entry is N#Cc1nccc(N2CCC(N[C@@H]3c4ccc(-n5c(-c6cccnc6N)nc6ccc(-n7cccn7)nc65)cc4CC3F)CC2)n1 (stereo partly drawn)
A) 8.01

Q) Report measured pIC50; entry is Cc1cnc(C#N)nc1N1CCC(N[C@H]2CCc3cc(-n4c(-c5cccnc5N)nc5ccc(-n6cccn6)nc54)ccc32)CC1
A) 8.08

Q) Report measured pIC50; entry is Nc1ncccc1-c1nc2ccc(-n3cccn3)nc2n1-c1ccc2c(c1)CC(F)[C@@H]2NC1CCc2cnccc21 (single isomer, unassigned)
A) 6.85

Q) Report measured pIC50; entry is Nc1ncccc1-c1nc2ccc(-n3ccc(N4CCOCC4)n3)nc2n1-c1ccc2c(c1)CC[C@@H]2NC1CCN(C(=O)C2CC2)CC1
A) 7.51

Q) Report measured pIC50; entry is Nc1ncccc1-c1nc2ccc(-n3cccn3)nc2n1-c1ccc2c(c1)CC[C@@H]2NC1CCc2cnccc21 (single isomer, unassigned)
A) 6.71
